- ASSAY TARGET: RORγt (Homo sapiens)
- Sequence (P51449 1-497 isoform P51449-2): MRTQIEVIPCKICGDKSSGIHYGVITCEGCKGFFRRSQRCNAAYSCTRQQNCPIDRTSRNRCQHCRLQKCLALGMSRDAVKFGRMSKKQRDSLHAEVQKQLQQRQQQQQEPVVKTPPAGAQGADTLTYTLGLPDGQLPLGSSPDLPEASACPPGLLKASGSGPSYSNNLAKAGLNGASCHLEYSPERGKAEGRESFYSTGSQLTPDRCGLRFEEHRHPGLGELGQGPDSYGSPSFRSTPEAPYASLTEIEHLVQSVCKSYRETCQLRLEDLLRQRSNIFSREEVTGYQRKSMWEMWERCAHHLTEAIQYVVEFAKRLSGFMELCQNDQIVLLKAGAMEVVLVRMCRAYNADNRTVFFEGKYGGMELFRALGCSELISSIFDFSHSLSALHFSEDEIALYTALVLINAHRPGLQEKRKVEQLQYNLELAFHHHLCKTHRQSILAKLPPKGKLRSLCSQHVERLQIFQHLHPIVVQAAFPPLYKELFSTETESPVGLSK
- ASSAY SUMMARY: Cofactor recruitment test (Alpha Screen, biotinylated SRC-1 peptide)
- Assay type: biochemical
- REPORTED CONDITIONS: read-out: Signal value inhibitory rate at test compound 1 μM (%)
MEASUREMENT LABEL: inhibition at 1 µM (%)
The reply should contain only the number, in %.

The recorded inhibition at 1 µM for COCc1ccc2c(c1)CCN(C(=O)Cc1cc(O)no1)[C@H]2C(=O)Nc1ccc(C(C)(C)C)c(F)c1 is 98

The recorded inhibition at 1 µM for COc1ccc2c(c1)CCN(C(=O)c1cc(O)no1)[C@H]2C(=O)Nc1cc(F)c(C(C)(C)COCC(F)F)c(F)c1 is 82

The recorded inhibition at 1 µM for CCOc1ccc2c(n1)CCN(C(=O)Cc1cc(O)no1)[C@H]2C(=O)Nc1cc(F)c([Si](C)(C)C)c(F)c1 is 100

The recorded inhibition at 1 µM for CCOc1ccc2c(n1)CCN(C(=O)Cc1cc(O)no1)[C@H]2C(=O)Nc1ccc([Si](C)(C)C)c(F)c1 is 99

The recorded inhibition at 1 µM for COc1ccc2c(c1)CCN(C(=O)c1cc(O)no1)C2C(=O)Nc1ccc(C(C)(C)C)c(F)c1 (stereo not shown) is 77.3

The recorded inhibition at 1 µM for CCOc1ccc2c(c1)CCN(C(=O)CC(C)(O)CC(=O)O)[C@H]2C(=O)Nc1cc(F)c([Si](C)(C)C)c(F)c1 (stereo partly shown) is 91

The recorded inhibition at 1 µM for COc1ccc2c(c1)CCN(C(=O)c1cc(O)no1)C2C(=O)Nc1cc(F)c(C(C)(C)C)c(F)c1 (stereo not shown) is 82.4

Source listed as patent US10053468B2.
